Assay: Volume of distribution in specific pathogen free ICR mouse at 2 mg/kg, iv by LC/TSQ-MS analysis
Format: ADME, organism-based
Conditions: in vivo
quantity_measured: Vd (L/kg)
One number for each entry, in L/kg.

Which measured Vd value corresponds to O=c1nc(N2C[C@@H]3[C@H](C2)[C@H]3NCC2CCCCC2)sc2c([N+](=O)[O-])cc(C(F)(F)F)cc12 ?
12.8

---

Assay: Terminal half life in specific pathogen free ICR mouse at 10 mg/kg, po by LC/TSQ-MS analysis
Type: ADME, organism-based
Details: in vivo, read-out: beta t1/2 (converted)
quantity_measured: half-life (min)
Answers are plain numbers, in min.

Which measured half-life value corresponds to O=c1nc(N2C[C@@H]3[C@H](C2)[C@H]3NCC2CCCCC2)sc2c([N+](=O)[O-])cc(C(F)(F)F)cc12 ?
131
